Molecular target: Stb4 (UniProt P50104)
Sequence (P50104 whole entry): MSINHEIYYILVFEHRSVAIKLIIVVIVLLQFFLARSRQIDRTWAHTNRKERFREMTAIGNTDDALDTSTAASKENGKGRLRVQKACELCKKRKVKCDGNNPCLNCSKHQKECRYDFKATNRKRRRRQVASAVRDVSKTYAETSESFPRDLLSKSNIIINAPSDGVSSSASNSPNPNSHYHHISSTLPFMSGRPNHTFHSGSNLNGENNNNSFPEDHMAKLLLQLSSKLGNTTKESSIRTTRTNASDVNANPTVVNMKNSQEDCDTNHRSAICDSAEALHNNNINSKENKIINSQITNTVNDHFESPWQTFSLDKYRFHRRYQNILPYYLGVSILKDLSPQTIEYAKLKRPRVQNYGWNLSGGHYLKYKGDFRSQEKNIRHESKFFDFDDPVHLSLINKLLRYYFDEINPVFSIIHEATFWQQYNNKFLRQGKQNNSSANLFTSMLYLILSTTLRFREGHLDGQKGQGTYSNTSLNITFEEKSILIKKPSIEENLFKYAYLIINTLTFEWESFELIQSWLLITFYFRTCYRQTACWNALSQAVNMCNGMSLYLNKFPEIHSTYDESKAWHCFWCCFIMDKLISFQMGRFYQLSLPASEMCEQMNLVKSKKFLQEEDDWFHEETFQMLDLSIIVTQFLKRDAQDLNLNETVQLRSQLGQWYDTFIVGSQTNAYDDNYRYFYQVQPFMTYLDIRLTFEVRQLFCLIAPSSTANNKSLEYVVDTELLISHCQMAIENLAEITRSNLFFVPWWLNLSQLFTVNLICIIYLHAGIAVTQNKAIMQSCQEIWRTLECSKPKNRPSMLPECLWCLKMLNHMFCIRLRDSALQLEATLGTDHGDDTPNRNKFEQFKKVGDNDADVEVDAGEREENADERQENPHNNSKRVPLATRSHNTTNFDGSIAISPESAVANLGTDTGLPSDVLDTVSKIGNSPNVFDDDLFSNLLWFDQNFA
Experiment: PBM E-score (8-mer binding enrichment) (E-score (-0.5 to 0.5)); higher = stronger / more preferred TF binding
Conditions: protein concentration: 200 nM; construct: GST-DNA-binding domain
The full ranking holds about 33,000 sequences; the median of “E-score (-0.5 to 0.5)” is about -0.056, and the highest 2% start at about 0.38. The list comes from a sample in which the highest values are over-represented; it also holds close analogues and randomly drawn sequences.
Measured PBM E-score of individual entries
Result Type: PBM E-score

- Residue Codes: "AACTTGGG"
  Observed Result: 0.0814
- Residue Codes: "GTATCGGA"
  Observed Result: 0.39
- Residue Codes: "AGATTCCT"
  Observed Result: -0.216
- Residue Codes: "AGACGGGA"
  Observed Result: 0.174
- Residue Codes: "GATTGACC"
  Observed Result: 0.0279
- Residue Codes: "AGGGCCAT"
  Observed Result: -0.253
- Residue Codes: "AGATTCCG"
  Observed Result: 0.389
- Residue Codes: "GAATCGGA"
  Observed Result: 0.38
